In this section, each of the compounds is paired with its reported pest or weed control at 0.004 mg.
- Test system: adult engorged female ticks (Rhipicephalus microplus)
- assay_summary: Rhipicephalus (Boophilus) microplus injection test
- Type: in vivo
- experimental_conditions: 168 h, 4 μg/animal, egg deposition after 7 days, read-out: efficacy (infertile eggs)
Give your result in % as a bare value.

Example compounds with recorded pest or weed control at 0.004 mg:
| compound | pest or weed control at 0.004 mg (%) |
| --- | --- |
| CC(NC(=O)c1cc(C(F)(F)F)cc(C(F)(F)F)c1)c1nc(Cc2ccccc2)nn1-c1ncccn1 (racemic) | 100 |
| CNc1nc(C(C)NC(=O)c2cc(Cl)cc(OC(F)(F)F)c2)n(-c2ncccn2)n1 (stereo not shown) | 100 |
| CC(NC(=O)c1cc(Cl)cc(S(C)(=O)=O)c1)c1nc(-c2cnccn2)nn1-c1ncccn1 (stereo not shown) | 100 |

Okay, now this compound:
IN: For the compound shown here, CC(NC(=O)c1cc(Cl)cc(C(F)(F)F)c1)c1nc(C#N)nn1-c1ccc(C#N)cn1 (stereo not shown) , give the reported pest or weed control at 0.004 mg.
OUT: 100

###

Form field: mortality at 500 g/ha (one value per entry).
- Test system: larvae of the southern green stink bug (Nezara viridula)
- assay_summary: Nezara viridula spray test
- Type: in vivo
- experimental_conditions: in Hordeum vulgare, 96 h
Field: value (include unit after the number)

| compound | experimental_target | mortality at 500 g/ha |
| --- | --- | --- |
| C[C@H](NC(=O)c1cc(C(F)(F)F)cc(C(F)(F)F)c1)c1nc(N(C)C)nn1-c1ncc(Cl)cn1 [I-176] | larvae of the southern green stink bug (Nezara viridula) | 100% |
| C[C@H](NC(=O)c1cc(C(F)(F)F)cc(C(F)(F)F)c1)c1nc(N2CCOCC2)nn1-c1ncccn1 [I-145] | larvae of the southern green stink bug (Nezara viridula) | 100% |
| CC(NC(=O)c1cc(Cl)cc(S(C)(=O)=O)c1)c1nc(CS(C)(=O)=O)nn1-c1ccc(Cl)cn1 (stereo not shown) [I-027] | larvae of the southern green stink bug (Nezara viridula) | 100% |

IN: Field request: mortality at 500 g/ha | item: CNc1nc([C@H](C)NC(=O)c2cc(Br)cc(C(F)(F)F)c2)n(-c2ncccn2)n1 [I-136]
OUT: 90%

###

- Tested on: two spotted spidermite (Tetranychus urticae)
- assay_summary: Tetranychus urticae spray test, OP-resistant
- Assay type: in vivo
- experimental_conditions: foliar, 144 h, after 6 days, French bean leaf disks
recorded_metric: mortality at 500 g/ha (%)
Response body: numeric value in %, unit text excluded.

| compound | uom | mortality at 500 g/ha |
| --- | --- | --- |
| CC(NC(=O)c1cc(Cl)cc(C(F)(F)F)c1)c1nc(NC(=O)OC(C)(C)C)nn1-c1ccc(Cl)cn1 (stereo not shown) | % | 90 |

IN: Record lookup: for two spotted spidermite (Tetranychus urticae), what mortality at 500 g/ha belongs to CC(NC(=O)c1cc(Cl)cc(C(F)(F)F)c1)c1nc([S+](C)[O-])nn1-c1ccc(Cl)cn1 (stereo not shown) ?
OUT: 100

IN: Find mortality at 500 g/ha (two spotted spidermite (Tetranychus urticae)) for the entry CC(NC(=O)c1cc(Cl)cc(S(C)(=O)=O)c1)c1nc(NC(=O)C2(Cl)CC2)nn1-c1ccc(Cl)cn1 (stereo not shown)
OUT: 90

IN: Write down the reported mortality at 500 g/ha of CC(NC(=O)c1cc(Cl)cc(C(F)(F)F)c1)c1nc(NC(=O)CC(F)(F)F)nn1-c1ccc(Cl)cn1 (stereo not shown) , test system: two spotted spidermite (Tetranychus urticae).
OUT: 90

###

- Test system: fall armyworm larvae (Spodoptera frugiperda)
- assay_summary: Spodoptera frugiperda spray test (maize leaf sections)
- Type: in vivo
- experimental_conditions: 168 h
recorded_metric: mortality at 100 g/ha (%)
Give the number; % is assumed, so skip it.

Field: example entries. Status: answers known.
| compound | mortality at 100 g/ha, % |
| --- | --- |
| CNc1nc([C@H](C)NC(=O)c2cc(Br)cc(OC(F)(F)F)c2)n(-c2ccc(C#N)cn2)n1 [I-142] | 100 |
| CC(NC(=O)c1cc(C(F)(F)F)cc(C(F)(F)F)c1)c1nc(N)nn1-c1ccc(C(=O)N2CCOCC2)cn1 (centres unmarked) [I-115] | 100 |
| CNc1nc([C@H](C)NC(=O)c2cc(Br)cc(Br)c2)n(-c2ncccn2)n1 [I-131] | 100 |

IN: # mortality at 100 g/ha lookup, item CC(NC(=O)c1cc(Cl)cc(C(F)(F)F)c1)c1nc(C(=O)NC2CC2)nn1-c1ncccn1 (single isomer, unassigned) [I-076]
OUT: 100

IN: Which mortality at 100 g/ha value is on record for CC(NC(=O)c1cc(Br)cc(Br)c1)c1nc(N)nn1-c1ccc(C#N)cn1 (centres unmarked) [I-114] ?
OUT: 100

IN: Using the record for C[C@H](NC(=O)c1cc(OC(F)(F)F)cc(C2CC2)c1)c1nc(N)nn1-c1ccc(C#N)cn1 [I-154] , report its mortality at 100 g/ha.
OUT: 100

IN: Look up mortality at 100 g/ha: CON(C)c1nc([C@H](C)NC(=O)c2cc(C(F)(F)F)cc(C(F)(F)F)c2)n(-c2ncccn2)n1 [I-149]
OUT: 100

IN: Query (compound): CC(NC(=O)c1cc(F)cc(C#N)c1)c1nc(N)nn1-c1ncccn1 (centres unmarked) [I-105] ; field requested: mortality at 100 g/ha
OUT: 100

IN: Query: mortality at 100 g/ha; subject: C[C@H](NC(=O)c1cc(C(F)(F)F)cc(C(F)(F)F)c1)c1nc(N2CCOCC2)nn1-c1ncccn1 [I-145]
OUT: 100

IN: Query: mortality at 100 g/ha; subject: CC(NC(=O)c1cc(Cl)cc(C(F)(F)F)c1)c1nc(C(=O)NC2CC2)nn1-c1ccc(C#N)cn1 (centres unmarked) [I-078]
OUT: 100

IN: Query: mortality at 100 g/ha; subject: CC(NC(=O)c1cc(Br)cc(C(F)(F)F)c1)c1nc(-c2cnccn2)nn1-c1ccc(Cl)cn1 (centres unmarked) [I-036]
OUT: 100

IN: Return reported mortality at 100 g/ha; argument: CON(C)c1nc([C@H](C)NC(=O)c2cc(Cl)cc(C(C)(C)C#N)c2)n(-c2ncccn2)n1 [I-163]
OUT: 100

IN: Would you kindly share the measured mortality at 100 g/ha for CON(C)c1nc([C@H](C)NC(=O)c2cc(Br)cc(Br)c2)n(-c2ncccn2)n1 [I-150] ?
OUT: 100

IN: Fill in: mortality at 100 g/ha of CNc1nc([C@H](C)NC(=O)c2cc(C(F)(F)F)cc(C(F)(F)F)c2)n(-c2ccc(C#N)cn2)n1 [I-168] is ___
OUT: 100

IN: Recorded mortality at 100 g/ha of CC(=O)Nc1nc(C(C)NC(=O)c2cc(OC(F)(F)F)cc(C3CC3)c2)n(-c2ccc(C#N)cn2)n1 (centres unmarked) [I-124] , please.
OUT: 100

IN: Which mortality at 100 g/ha is listed for CNc1nc([C@H](C)NC(=O)c2cc(Cl)cc(OC(F)(F)F)c2)n(-c2ncccn2)n1 [I-129] ?
OUT: 100

IN: # mortality at 100 g/ha lookup, item CNc1nc([C@H](C)NC(=O)c2cc(OC(F)(F)F)cc(S(C)(=O)=O)c2)n(-c2ncc(C#N)s2)n1 [I-212]
OUT: 100

IN: I have this compound here, C[C@H](NC(=O)c1cc(Cl)cc(C(C)(C)C#N)c1)c1nc(N(C)C)nn1-c1ncc(Cl)cn1 [I-178] , and I need its recorded mortality at 100 g/ha.
OUT: 100

IN: I am curious: what mortality at 100 g/ha value has been reported for CC(NC(=O)c1cc(C(F)(F)F)cc(C(F)(F)F)c1)c1nc(N)nn1-c1ncccn1 (centres unmarked) [I-007] ?
OUT: 100

IN: // lookup mortality at 100 g/ha for CC(NC(=O)c1cc(C(F)(F)F)cc(C(F)(F)F)c1)c1nc(N(C)C)nn1-c1ncc(Cl)cn1 (centres unmarked) [I-165]
OUT: 100

IN: I have this compound here, CC(NC(=O)c1cc(Cl)cc(C(F)(F)F)c1)c1nc(NC(=O)C2CC2)nn1-c1ccc(Cl)cn1 (centres unmarked) [I-015] , and I need its recorded mortality at 100 g/ha.
OUT: 100

###

- Tested on: adult engorged female ticks (Rhipicephalus microplus)
- assay_summary: Rhipicephalus (Boophilus) microplus injection test
- Assay type: in vivo
- experimental_conditions: 168 h, 20 μg/animal, egg deposition after 7 days, read-out: efficacy (infertile eggs)
- Method: Solvent: dimethyl sulfoxide To produce a suitable preparation of active compound, 10 mg of active compound are dissolved in 0.5 mL solvent, and the concentrate is diluted with solvent to the desired concentration. Five adult engorged female ticks (Rhipicephalus microplus) are injected with 1 μL compound solution into the abdomen. The ticks are transferred into replica plates and incubated in a climate chamber. After 7 days egg deposition of fertile eggs is monitored. […]
Catalogue of compounds with associated pest or weed control at 0.02 mg
Field: numeric (%). Do not append units.

Here's what some known entries look like.
| compound | pest or weed control at 0.02 mg [%] |
| --- | --- |
| CC(NC(=O)c1cc(Cl)nc(C(F)(F)F)c1)c1nc(-c2cnccn2)nn1-c1ccc(Cl)cn1 (stereo not shown) | 100 |
| CC(=O)Nc1nc(C(C)NC(=O)c2cc(Cl)cc(C(F)(F)F)c2)n(-c2ccc(Cl)cn2)n1 (racemic) | 100 |
| CC(NC(=O)c1cc(Cl)cc(C(F)(F)F)c1)c1nc(NC(=O)OC(C)(C)C)nn1-c1ccc(Cl)cn1 (stereo not shown) | 100 |
| CC(NC(=O)c1cc(Cl)cc(C(F)(F)F)c1)c1nc(C(=O)NC2CC2)nn1-c1ccc(C#N)cn1 (stereo not shown) | 100 |
| CC(NC(=O)c1cc(Br)cc(C(F)(F)F)c1)c1nc(-c2cnccn2)nn1-c1ccc(Cl)cn1 (stereo not shown) | 100 |

IN: Fill blank: measured pest or weed control at 0.02 mg of the compound CC(NC(=O)c1cc(Cl)cc(S(C)(=O)=O)c1)c1nc(-c2ccco2)nn1-c1ncccn1 (stereo not shown) is ____.
OUT: 100

IN: Value lookup for pest or weed control at 0.02 mg; key = CC(NC(=O)c1cc(Cl)cc(S(C)(=O)=O)c1)c1nc(S(C)(=O)=O)nn1-c1ccc(Cl)cn1 (racemic)
OUT: 100

IN: Quick one: pest or weed control at 0.02 mg for CC(NC(=O)c1cc(Cl)cc(C(F)(F)F)c1)c1nc(C#N)nn1-c1ccc(Cl)cn1 (racemic) ?
OUT: 100

IN: Could you share which pest or weed control at 0.02 mg value was measured for CC(NC(=O)c1cc(Cl)cc(S(C)(=O)=O)c1)c1nc(SC(F)(C(F)(F)F)C(F)(F)F)nn1-c1ccc(Cl)cn1 (stereo not shown) ?
OUT: 100
